- TARGET_OR_SYSTEM: Amine oxidase [flavin-containing] A (Homo sapiens, UniProt P21397)
- Sequence (P21397 whole entry): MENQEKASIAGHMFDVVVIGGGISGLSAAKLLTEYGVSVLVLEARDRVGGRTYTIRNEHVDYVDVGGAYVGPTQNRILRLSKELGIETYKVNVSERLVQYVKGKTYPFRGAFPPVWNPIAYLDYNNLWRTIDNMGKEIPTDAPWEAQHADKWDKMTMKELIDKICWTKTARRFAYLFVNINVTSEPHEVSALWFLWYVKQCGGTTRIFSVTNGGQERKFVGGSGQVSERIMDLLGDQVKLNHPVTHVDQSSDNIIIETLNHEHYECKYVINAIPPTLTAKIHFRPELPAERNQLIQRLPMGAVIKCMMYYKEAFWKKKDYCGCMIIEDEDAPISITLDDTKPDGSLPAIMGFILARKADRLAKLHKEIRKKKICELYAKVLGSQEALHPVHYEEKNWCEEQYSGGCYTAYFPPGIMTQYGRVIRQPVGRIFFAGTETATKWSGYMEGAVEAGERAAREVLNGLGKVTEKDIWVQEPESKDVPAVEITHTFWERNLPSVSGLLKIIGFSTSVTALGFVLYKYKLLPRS
- EXPERIMENTAL_PROTOCOL: Inhibition of human MAO-A expressed in baculovirus infected BTI insect cells preincubated for 15 mins
pIC50: −log10 of the molar value.
Outcome label depends on pIC50 relative to 6: at/above gives yes, below gives no.

INSERT INTO assay_data (structure_notation, discrete_label) VALUES
  ('C=CCNCc1cc2cc(OCCCC3CCN(Cc4ccccc4)CC3)ccc2[nH]1', 'no'),
  ('C#CCNCc1cc2cc(OCCCC3CCN(Cc4ccccc4)CC3)ccc2[nH]1', 'no'),
  ('C#CCNCc1cc2cc(OCc3ccccc3)ccc2[nH]1', 'yes'),
  ('C#CCN(C)Cc1cc2cc(OCc3ccc(OC)c4ncccc34)ccc2[nH]1', 'no');
